# Test system: NCI-H460 lung
# assay.text: NCI tumour cell line growth inhibition, 48 h
metric.name: TGI

Use these answered entries as a reference point.
molecule	TGI
Nc1nc(-c2ccccc2)nc2oc(-c3cccs3)nc12	> 100 µM
O=C(/C(=C/c1ccc([N+](=O)[O-])cc1)SCc1ccccc1)c1ccc(Cl)cc1	20.3 µM
CCC(=O)NCC1CCCN2CCCCC12 (stereo unspecified)	> 100 µM
Cc1ccnc(NS(=O)(=O)c2ccc(N=[N+]=[N-])cc2)n1	> 100 µM
Cc1ccc(NC(=O)c2ccc(OP(=O)(O)Nc3ccc(C)cc3)cc2)cc1	> 100 µM

Inquiry: Need TGI of S=C(N/N=C(/c1ccccc1)c1ccccn1)N(Cc1ccccn1)Cc1ccccn1 , thanks.
Reply text: 4.7 µM

Inquiry: Next molecule: Nc1c(S(=O)(=O)O)cc2cc(S(=O)(=O)O)ccc2c1N=Nc1ccc(-c2ccc(N=Nc3c(N)c(S(=O)(=O)O)cc4cc(S(=O)(=O)O)ccc34)c(S(=O)(=O)O)c2)cc1
Reply text: > 31.6 µM

Inquiry: Next molecule: O=C1CN(c2cccc(Cl)c2)C(=O)CN1CCN1CC(=O)N(c2cccc(Cl)c2)CC1=O
Reply text: > 100 µM

* * *

Recorded measurements of TGI, one per entry
# Tested on: HL-60(TB) leukemia
# assay.text: NCI tumour cell line growth inhibition, 48 h
Report only the number, with the unit µM understood.

molecule	scale.unit	TGI
CC1(C)O[C@H]2OC(CO[Si](C)(C)C(C)(C)C)C(N=[N+]=[N-])[C@H]2O1 (stereo not given in full)	µM	23.1

Please look at the following molecule next.
Inquiry: Need TGI of CCN(CC)C(=S)N/N=C/c1cc([N+](=O)[O-])ccc1O , thanks.
Reply text: 6.08

* * *

# Test system: NCI-H522 lung
# assay.text: NCI tumour cell line growth inhibition, 48 h
metric.name: TGI

Use these answered entries as a reference point.
molecule	TGI
C[C@]12CC[C@H](O)CC1=CC[C@@H]1[C@@H]2CC[C@]2(C)C(=N/N)/C(=N\O)C[C@@H]12	> 100 µM
CCC(=O)NC(Nc1cc(C)on1)(C(F)(F)F)C(F)(F)F	> 100 µM
Nc1c(S(=O)(=O)O)cc2cc(S(=O)(=O)O)ccc2c1N=Nc1ccc(-c2ccc(N=Nc3c(N)c(S(=O)(=O)O)cc4cc(S(=O)(=O)O)ccc34)c(S(=O)(=O)O)c2)cc1	> 100 µM
O=C(N/N=C/c1ccc(Cl)cc1)c1c(Cl)c(Cl)c(Cl)c(Cl)c1-c1nc2ccccc2[nH]1	> 100 µM
C=C1CCN2CC[C@@H](OC(=O)/C(C)=C\C)[C@@H]12	> 100 µM

Inquiry: Need TGI of CC1(C)OC1COc1c2occc2cc2ccc(=O)oc12 (stereo not given) , thanks.
Reply text: > 100 µM

Inquiry: Next molecule: CCN(C(=O)N1CCN(c2cc3c(cc2F)c(=O)c(C(=O)O)cn3C2CC2)CC1)c1nc(-c2ccc(Cl)cc2)cs1
Reply text: > 26.5 µM

Inquiry: Next molecule: CC(=O)CC(OC(C)=O)C1=CCC2C(CC1C)OC(=O)C2C (stereo not given)
Reply text: > 100 µM

Inquiry: Next molecule: COC(=O)CC(c1ccccc1)C1(c2ccccc2)SCCS1 (stereo not given)
Reply text: > 290 µM

Inquiry: Next molecule: N#Cc1c[nH]n2c(N=Nc3ccc(Cl)cc3)c(O)nc12
Reply text: > 100 µM

* * *

Recorded measurements of TGI, one per entry
# Test system: RPMI-8226 leukemia
# assay.text: NCI tumour cell line growth inhibition, 48 h

Use these answered entries as a reference point.
compound	reported.value
Nc1ncnc2c1[nH]c(=O)n2-c1ccccc1	> 100 µM
CC(=O)N(C(=O)CC(=O)N1N=C(c2ccccc2)C(N=Nc2ccccc2[N+](=O)[O-])C1=O)c1ccc(Cl)cc1 (stereo not given)	> 10 µM
COC(=O)C1CC(C=[N+](C)C)=C(SC)N1C(=O)OCc1ccccc1 (stereo not given)	> 100 µM

Inquiry: Need TGI of COc1ccc(C)cc1-c1cc(Sc2ccccc2)c(-c2cc(C)ccc2OC)o1 , thanks.
Reply text: > 31.6 µM

Inquiry: Next compound: O=[N+]([O-])c1ccc(Cl)cc1N/N=C/c1ccnc2ccccc12
Reply text: > 100 µM

Inquiry: Next compound: Cc1ccc(NC(=O)CC2Sc3ccccc3NC2=O)cc1C (stereo not given)
Reply text: > 100 µM

Inquiry: Next compound: CC1(C)O[C@H]2OC(CO[Si](C)(C)C(C)(C)C)C(N=[N+]=[N-])[C@H]2O1 (stereo not given in full)
Reply text: 28.8 µM

Inquiry: Next compound: N#C/C(=C1/Sc2c(nc[nH]c2=O)N1c1ccccc1)c1nc2ccccc2[nH]1
Reply text: > 100 µM

* * *

Recorded measurements of TGI, one per entry
# Tested on: ACHN renal
# assay.text: NCI tumour cell line growth inhibition, 48 h

Use these answered entries as a reference point.
molecule	target.entity	reported.value
COC[C@H]1Cn2cc(-c3nc(Nc4ccnn4C)ncc3C)nc2C(=O)N1Cc1ccc(F)c(F)c1	ACHN renal	> 100 µM
O=C(Nc1ccccc1-c1nn(C(=S)Nc2ccccc2)c(=S)n(C(=S)Nc2ccccc2)c1=O)C(F)(F)F	ACHN renal	> 95.6 µM
CCOC(=O)C1=C(C)N(c2ccc(F)cc2F)[C@]2(C#N)C(O)=C(Cl)C(Cl)=C(O)[C@]12C#N	ACHN renal	> 100 µM

Inquiry: Need TGI of COc1ccc(-c2cn[nH]c2-c2cc(OC)c(OC)c(OC)c2)cc1 , thanks.
Reply text: 21.3 µM

Inquiry: Next molecule: O=C(/C=C/c1ccc(O)cc1)c1ccc(O)cc1
Reply text: > 74.3 µM

Inquiry: Next molecule: O=C(C1OC1c1ccc(Br)cc1O)C12CC3CC(CC(C3)C1)C2 (centres undefined)
Reply text: > 100 µM

Inquiry: Next molecule: C[C@]12CC[C@H](O)CC1=CC[C@@H]1[C@@H]2CC[C@]2(C)C(=N/N)/C(=N\O)C[C@@H]12
Reply text: > 100 µM

Inquiry: Next molecule: Nc1n[nH]c2cc(F)c([C@@H]3Nc4ccc5[nH]ncc5c4[C@H]4C5CCC(C5)[C@@H]34)cc12 (some centres undefined)
Reply text: 26.1 µM

Inquiry: Next molecule: O=S(=O)(c1ccccc1)c1cccc2c1NCCC2
Reply text: > 100 µM

Inquiry: Next molecule: CC(=O)OCCOCNC(=S)N/N=C(\C)c1cnccn1
Reply text: 86.3 µM

Inquiry: Next molecule: O=C(O)c1nc2nc(Cl)c(Cl)nc2[nH]1
Reply text: > 100 µM

Inquiry: Next molecule: O=C1CCCCN1c1ccccc1C#C/C=C\C#Cc1ccccc1C(F)(F)F
Reply text: 14.7 µM

Inquiry: Next molecule: O=CNc1ccc2c(c1)C(=O)c1ccccc1-2
Reply text: > 100 µM

Inquiry: Next molecule: CCOC(=O)c1c(CN2CCCC2)n(-c2ccccc2)c2cc(Br)c(O)cc12
Reply text: 44.9 µM

* * *

Recorded measurements of TGI, one per entry
# Test system: SK-MEL-28 melanoma
# assay.text: NCI tumour cell line growth inhibition, 48 h

Use these answered entries as a reference point.
compound	reported.value
O=C(/C=C/c1ccc([N+](=O)[O-])cc1)c1ccc(NCc2nc3ccccc3[nH]2)cc1	28 µM
Cc1ccc(NC(=O)c2ccc(OP(=O)(O)Nc3ccc(C)cc3)cc2)cc1	> 100 µM
O=S(=O)(N/N=C/c1cccc(/C=N/NS(=O)(=O)c2ccccc2)c1)c1ccccc1	> 100 µM
CC1CN(C)c2ccccc2N=C1NN (centres undefined)	> 100 µM
O=S(=O)(c1ccccc1)N1CCN(S(=O)(=O)c2ccccc2)c2ccccc21	> 100 µM
CN(C)CCn1c2c3ccccc3ccc2c2oc(=O)c3ccccc3c21	18.4 µM
N=c1nnc2ccc(Cl)cc2n1O	> 100 µM
CC(=O)OCCOCNC(=S)N/N=C(\C)c1cnccn1	> 100 µM

Inquiry: So what TGI did C(=C(c1ccc(OC2CCCCO2)cc1)c1ccc(OC2CCCCO2)cc1)c1ccccc1 (centres undefined) get with SK-MEL-28 melanoma?
Reply text: 2.41 µM

Inquiry: Next compound: Cc1ccc(N(Cc2ccccc2)Cc2ccccc2)cc1
Reply text: > 100 µM

* * *

# System: U251 CNS
# assay.text: NCI tumour cell line growth inhibition, 48 h
metric.name: log10(TGI) (log10 of the value in µM)
Hello, just confirming the data are log10 of TGI with units of µM.

Use these answered entries as a reference point.
molecule	log10(TGI)
COc1ccc(C(=C2C=CC=C2)c2ccc(OC)cc2)cc1	1.85
Nc1c(C(=O)Nc2cccc(C(F)(F)F)c2)sc2nc3c(cc12)CCCCC3	0.90

Inquiry: Need log10(TGI) of O=c1c(-c2ccccc2)c2oc(c1-c1ccccc1)CSCc1cccc(c1)CSC2 , thanks.
Reply text: 1.95

Inquiry: Next molecule: C[C@]12CC[C@H](O)CC1=CC[C@@H]1[C@@H]2CC[C@]2(C)C(=N/N)/C(=N\O)C[C@@H]12
Reply text: 1.64

Inquiry: Next molecule: O=c1ccc2ccccc2cc1[O-].O=c1ccc2ccccc2cc1[O-].[O]=[U+2]=[O]
Reply text: 1.67

Inquiry: Next molecule: COc1ccc(CN2C(=O)/C(=C\c3cc(OC)c(OC)c(OC)c3)c3ccccc32)cc1
Reply text: 0.47
